target.desc: T1, S1-69/70 DelFc (SARS-CoV-2, UniProt P0DTC2 14-685)
T1 construct: domain: S1
test.description: Fc-tagged protein on receptor-expressing HEK293T cells (FIG. 13A)
quantity.name: binding result

binder | quantity.name | result
Liver and lymph node sinusoidal endothelial cell C-type lectin expressed on cells (receptor, whole, on cells; also called LSECtin; CLEC4G) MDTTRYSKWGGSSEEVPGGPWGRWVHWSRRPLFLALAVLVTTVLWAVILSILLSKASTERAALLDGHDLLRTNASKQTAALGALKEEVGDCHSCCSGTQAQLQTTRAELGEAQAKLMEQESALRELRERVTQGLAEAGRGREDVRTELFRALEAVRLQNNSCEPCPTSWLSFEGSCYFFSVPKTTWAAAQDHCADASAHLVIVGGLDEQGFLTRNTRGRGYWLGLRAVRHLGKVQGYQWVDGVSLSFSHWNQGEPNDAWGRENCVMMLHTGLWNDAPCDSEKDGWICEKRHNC | binding result | binds
